PBM binding z-score for assorted sequences
# Tested on: PPARg:RXRa IVT, anti-PPARg (NR concentration 270 nM, RXRa partner concentration 90 nM)
# protocol_notes: PBM binding z-score (relative to random genomic background probes); higher = stronger binding; sequences stand for … in GC…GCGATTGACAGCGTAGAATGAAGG
Lab note: write the figure by itself, no unit.

Some entries whose results are on file:
biopolymer_sequence: CCAGACAGGTGGAAGGTAACTCAGTCTGGTACGC
PBM binding z-score: -0.196

biopolymer_sequence: ACAGAGAGGTGATGAAGGTAACTCAGGCTATCAT
PBM binding z-score: 1.11

Which PBM binding z-score is reported for this sequence? `CAAACTAGGTCAAAGGACAAAGTCGAGCCAACCA`
8.38

###

# System: RXRa DBDmut IVT, anti-RXR (DBD mutation: RXRa K156A/R161A, NR concentration 90 nM)
# protocol_notes: PBM binding z-score (relative to random genomic background probes); higher = stronger binding; sequences stand for … in GC…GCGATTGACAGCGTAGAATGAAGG
PBM binding z-score for assorted sequences
Lab note: write the figure by itself, no unit.

biopolymer_sequence: CAAACTAGGTCGCGAAAGGTCAAAGTCGAATGAC
tgt: RXRa DBDmut IVT, anti-RXR (DBD mutation: RXRa K156A/R161A, NR concentration 90 nM)
PBM binding z-score: 1.98

Which PBM binding z-score is reported for this sequence? `AGAGACAGGTGAGTGAAGGTAACTCAGCTGGACG`
-0.787

Which PBM binding z-score is reported for this sequence? `GCGACTGGGGCAAAGCAGGTTACGATAAGGTTGG`
-0.265

Which PBM binding z-score is reported for this sequence? `CCGACTGGGGCAAGGATACCATAACGCACAGCCA`
-0.717

Which PBM binding z-score is reported for this sequence? `CGTCCAAGGTCCGAGAGGTCAGTGAATGCCGAGT`
1.19

###

# Tested on: FXR:RXRa (NR concentration 270 nM, RXRa partner concentration 90 nM)
# protocol_notes: PBM binding z-score (relative to random genomic background probes); higher = stronger binding; sequences stand for … in GC…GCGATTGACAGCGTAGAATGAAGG
Decision: PBM binding z-score compared against 0.6; not below it gives MET, below it gives NOT MET.

As a guide, the following entries are already answered.
biopolymer_sequence: ACAAACAGGTGATGAAGGTAACTCAGGCTATCAT
category: NOT MET
//
biopolymer_sequence: CCGAATGGGGCAAAGGTTACCATACTCAGTACGA
category: MET
//
biopolymer_sequence: CATACAGGGTCAGCTAGCCCAGAGTAGGGACGGC
category: MET

Answer whether PBM binding z-score of `CGTCCAAGGTCATAGGAGGTCAGTTAAGACAGAT` is greater than or equal to 0.6.
MET

###

# System: RARg homodimer (NR concentration 270 nM)
# protocol_notes: PBM binding z-score (relative to random genomic background probes); higher = stronger binding; sequences stand for … in GC…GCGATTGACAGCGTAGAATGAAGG
PBM binding z-score for assorted sequences

Some entries whose results are on file:
biopolymer_sequence: TAGCCTAGGTCATGGGCGAGTATACCACGCGAAC
PBM binding z-score: 4.15
//
biopolymer_sequence: CCTTACGGGTCACGCGGTTATAGCACGACGAGCG
PBM binding z-score: 5.88
//
biopolymer_sequence: AACTCTAGGTAAAGATAGTTCAGTGAATGCAAAT
PBM binding z-score: 0.642
//
biopolymer_sequence: CGTCCAAGGTCAGACAGGTCAGTGAATGCCGAGT
PBM binding z-score: 6.13

Next item in the queue.
State its PBM binding z-score on RARg homodimer (NR concentration 270 nM): `CCAGACAGGTGAAAGGGAACTCAGTCTGGTACGC`
0.299
